Listed compounds paired with reported pIC50
target: TrxR from E. coli (Escherichia coli, UniProt P0A9P4); assay: Inhibition of isolated bacterial TrxR, DTNB-based assay; assay type: biochemical; set-up: purchased Sigma-Aldrich; details: isolated E. coli TrxR; DTNB assay; ± standard deviation, n = 3
Sequence (P0A9P4 2-321): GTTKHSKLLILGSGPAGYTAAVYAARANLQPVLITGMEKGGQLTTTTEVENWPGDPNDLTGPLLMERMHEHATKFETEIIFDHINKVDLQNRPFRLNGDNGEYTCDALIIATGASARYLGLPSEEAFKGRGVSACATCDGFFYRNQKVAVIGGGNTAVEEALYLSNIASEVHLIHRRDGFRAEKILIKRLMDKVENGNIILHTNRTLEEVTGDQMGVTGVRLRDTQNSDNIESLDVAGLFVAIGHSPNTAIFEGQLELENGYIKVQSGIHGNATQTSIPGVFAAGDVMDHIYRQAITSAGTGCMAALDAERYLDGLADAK
pIC50: −log10 of the molar value.
Measurement label: pIC50

CC(=O)OC[C@H]1O[C@@H]([S-])[C@H](OC(C)=O)[C@@H](OC(C)=O)[C@@H]1OC(C)=O.CCP(CC)CC.[Au+] [AF, auranofin, reference compound]	6.68
CCOC(=O)c1cn(C)[c]([Au-][Cl])[n+]1C	6.88
CCOC(=O)c1cn(C)[c]([Au-]([Cl])([Cl])[Cl])[n+]1C	6.42
COC(=O)c1cn(C)[c]([Au-]([Cl])([Cl])[Cl])[n+]1C	6.44
COC(=O)c1cn(C)[c]([Au-][Cl])[n+]1C	6.53

* * *

system: Enterococcus faecium DSM20477; test: Antibacterial activity (MIC, curve fitting); type: cell-based; conditions: Table S12; ± standard error of the mean
Measurement label: MIC, E. faecium

Cn1cc(C(=O)O)[n+](C)[c]1[Au-]([Cl])([Cl])[c]1n(C)cc(C(=O)O)[n+]1C.[Cl-]	> 100 µM
COC(=O)c1cn(C)[c]([Au-]([Cl])([Cl])[c]2n(C)cc(C(=O)OC)[n+]2C)[n+]1C.O=S(=O)([O-])C(F)(F)F	> 100 µM
CCOC(=O)c1cn(C)[c]([Au-][c]2n(C)cc(C(=O)OCC)[n+]2C)[n+]1C.F[B-](F)(F)F	> 100 µM

* * *

Listed compounds paired with reported IC50
test system: Vero E6 African green monkey kidney cells; assay: Antiproliferative activity in non-tumour reference cell line; format: cell-based; conditions: Vero E6 non-tumour reference cell line; SD in parentheses, n = 3
Measurement label: IC50

COC(=O)c1cn(C)[c]([Au-]([Cl])([Cl])[c]2n(C)cc(C(=O)OC)[n+]2C)[n+]1C.O=S(=O)([O-])C(F)(F)F	> 100 µM
Cn1cc(C(=O)O)[n+](C)[c]1[Au-]([Cl])([Cl])[c]1n(C)cc(C(=O)O)[n+]1C.[Cl-]	> 100 µM
COC(=O)c1cn(C)[c]([Au-][c]2n(C)cc(C(=O)OC)[n+]2C)[n+]1C.O=S(=O)([O-])C(F)(F)F	> 100 µM
